All values here come from PubChem BioAssay (NCI).

system: UO-31 renal; assay: NCI-60 one-dose screen, 48 h; conditions: 10 µM unless noted
About 83,000 compounds went through this panel and 20% of them were active in at least one assay; those are over-represented in the sample as a whole. Activity calls are given as the source filed them. The calls were made as follows: active = growth percent below 10; inactive = the rest.
Valid outcomes are listed here; reply with one: t (active), f (inactive)

Solved cases (5 shown):
>>> classification("O=C1c2ccccc2Cc2cccc(Cl)c21")
"f"
>>> classification("Cc1cc(C(N)=O)cc(C)c1C(=O)OCCCl")
"f"
>>> classification("CN(Cc1ccccc1)c1ccc(SC#N)cc1")
"f"
>>> classification("c1ccc(-c2cccc(-c3ccccn3)n2)nc1")
"t"
>>> classification("Nc1ccc(-c2ccc(N)c(S(=O)(=O)O)c2)cc1S(=O)(=O)O")
"f"

Field: next compound
Would you mind telling me which call this test gave "C[C@@]1(CO)[C@H](O)CC[C@@]2(C)[C@H]1CC[C@H]1C[C@@H]3C[C@@]12CC[C@@]3(O)COC(=O)CN" ?
f
